Reported pIC50 values are given for each entry in this list.
# assayed-system: ENL YEATS domain (6×HIS ENL YEATS Domain) binding to H3K9cr peptide (Homo sapiens)
Please treat pIC50 as minus the base-10 logarithm of the molar concentration.

// below: answered compounds
compound	pIC50
Cc1n[nH]c2cc(F)c(C(=O)Nc3cnc4cc(CN5CCC[C@@H]5C)[nH]c4c3)cc12	6.57
COCC1CCN(Cc2cc3cnc(NC(=O)c4ccc5c(cnn5C)c4)cc3[nH]2)C1 (centres unmarked)	6.55
C[C@H]1CCCN1Cc1cc2cnc(NC(=O)c3nc4ccc(O)cc4[nH]3)cc2[nH]1	5.71
Cc1nn(C(F)F)c2ccc(C(=O)Nc3cc4[nH]c(CN5CCC[C@@H]5C)cc4cn3)cc12	6.56
Cc1nc2cc(C(=O)Nc3cc4[nH]c(CN5CCC[C@@H]5C)cc4cn3)ccc2o1	6.05

## Input API: value(readout=pIC50, system=ENL YEATS domain (6×HIS ENL YEATS Domain) binding to H3K9cr peptide (Homo sapiens)) for record `C[C@H]1CCCN1Cc1cc2cnc(NC(=O)c3ccc4nc(N)ncc4c3)cc2[nH]1`
## Output 6.29

## Input Hello, I am looking for reported pIC50 with ENL YEATS domain (6×HIS ENL YEATS Domain) binding to H3K9cr peptide (Homo sapiens) for `C[C@H]1CCCN1Cc1cc2cnc(NC(=O)c3ccc4oc(=O)[nH]c4c3)cc2[nH]1` . Could you help?
## Output 5.96

## Input Report pIC50 for `C[C@H]1CCN1Cc1cc2cnc(NC(=O)c3ccc4[nH]nc(C5CC5)c4c3)cc2[nH]1` tested on ENL YEATS domain (6×HIS ENL YEATS Domain) binding to H3K9cr peptide (Homo sapiens).
## Output 6.62

## Input What value of pIC50 on ENL YEATS domain (6×HIS ENL YEATS Domain) binding to H3K9cr peptide (Homo sapiens) does `CNc1nn(C)c2cc(C(=O)Nc3cc4[nH]c(CN5CCC[C@@H]5C)cc4cn3)ccc12` have?
## Output 6.75

## Input Recall the recorded pIC50 for `Cc1n[nH]c2ccc(C(=O)Nc3cc4[nH]c(CN5CCC[C@@H]5C)cc4cn3)cc12` with ENL YEATS domain (6×HIS ENL YEATS Domain) binding to H3K9cr peptide (Homo sapiens) and state it.
## Output 6.84

## Input Missing value: pIC50, ENL YEATS domain (6×HIS ENL YEATS Domain) binding to H3K9cr peptide (Homo sapiens), entry `C[C@H]1CCCN1Cc1cc2cnc(NC(=O)c3ccc(-n4cnnc4)cc3)cc2[nH]1` . Fill in?
## Output 6.15

## Input Give pIC50 (ENL YEATS domain (6×HIS ENL YEATS Domain) binding to H3K9cr peptide (Homo sapiens)) of the following compound: `C[C@H]1CCCN1Cc1cc2cnc(NC(=O)c3ccc4c(c3)OCC(=O)N4)cc2[nH]1`
## Output 5.93

## Input Form field - read-out: pIC50; system: ENL YEATS domain (6×HIS ENL YEATS Domain) binding to H3K9cr peptide (Homo sapiens); submitted item: `C[C@H]1CCCN1Cc1cc2cnc(NC(=O)c3ccc4c(=O)[nH]ccc4c3)cc2[nH]1`
## Output 6.49

## Input # get_value(readout= pIC50, system= ENL YEATS domain (6×HIS ENL YEATS Domain) binding to H3K9cr peptide (Homo sapiens)) for `C[C@H]1CCCN1Cc1cc2cnc(NC(=O)c3ccc(-c4cnn(C)c4)cc3)cc2[nH]1`
## Output 6.60

## Input Hello, I am looking for reported pIC50 with ENL YEATS domain (6×HIS ENL YEATS Domain) binding to H3K9cr peptide (Homo sapiens) for `COc1cc(C(=O)Nc2cc3[nH]c(CN4CCC[C@@H]4C)cc3cn2)c(F)cc1-c1ccn[nH]1` . Could you help?
## Output 6.12

## Input Identify the measured pIC50 of `COc1cc2ccc(C(=O)Nc3cc4[nH]c(CN5CCC[C@@H]5C)cc4cn3)cc2cn1` for ENL YEATS domain (6×HIS ENL YEATS Domain) binding to H3K9cr peptide (Homo sapiens).
## Output 6.85

## Input What is its pIC50 for ENL YEATS domain (6×HIS ENL YEATS Domain) binding to H3K9cr peptide (Homo sapiens)? Entry: `C[C@H]1CCCN1Cc1cc2cnc(NC(=O)c3ccc4nnccc4c3)cc2[nH]1`
## Output 6.43

## Input Record `Cc1noc2cc(C(=O)Nc3cc4[nH]c(CN5CCC[C@@H]5C)cc4cn3)ccc12` : what is its pIC50 with ENL YEATS domain (6×HIS ENL YEATS Domain) binding to H3K9cr peptide (Homo sapiens)?
## Output 6.84

## Input I'm curious: which pIC50 was measured for `C[C@@H]1CCN1Cc1cc2cnc(NC(=O)c3ccc4c(cnn4C)c3)cc2[nH]1` tested on ENL YEATS domain (6×HIS ENL YEATS Domain) binding to H3K9cr peptide (Homo sapiens)?
## Output 5.66

## Input Identify the measured pIC50 of `C[C@H]1CCCN1Cc1cc2cnc(NC(=O)c3ccc(-c4ccnn4C)cc3F)cc2[nH]1` for ENL YEATS domain (6×HIS ENL YEATS Domain) binding to H3K9cr peptide (Homo sapiens).
## Output 6.06

----------
# assayed-system: ENL YEATS domain (6×HIS ENL YEATS Domain) binding to H3K9cr peptide (Homo sapiens)
# Sequence (Q03111 1-150): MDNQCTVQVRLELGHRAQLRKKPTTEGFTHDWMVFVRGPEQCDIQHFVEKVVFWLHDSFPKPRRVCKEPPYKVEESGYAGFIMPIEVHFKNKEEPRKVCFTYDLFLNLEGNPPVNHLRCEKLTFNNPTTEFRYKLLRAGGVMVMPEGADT
Reported pIC50 values for a set of compounds
As a rule, pIC50 stands for the negative log10 of the concentration, concentration in M.

Study these solved cases before continuing.
C[C@H]1CCCN1Cc1cc2cnc(NC(=O)c3ccc4cnn(C)c4c3)cc2[nH]1 6.53
C[C@H]1CCCN1Cc1cc2cnc(NC(=O)c3ccc(-c4cnn(CCO)c4)cc3)cc2[nH]1 6.78
C[C@H]1CCCN1Cc1cc2cnc(NC(=O)c3ccc4cc(=O)[nH]cc4c3)cc2[nH]1 6.68

## Input Return reported pIC50; argument: `Cc1n[nH]c2ccc(C(=O)Nc3cc4[nH]c(CN5CC6(C5)CC(F)(F)C6)cc4cn3)cc12`
## Output 6.82

## Input Given the entry `Cc1n[nH]cc1-c1ccc(C(=O)Nc2cc3[nH]c(CN4CCC[C@@H]4C)cc3cn2)cc1` , report its measured pIC50.
## Output 6.30

## Input Please report the recorded pIC50 for `Cc1noc2ccc(C(=O)Nc3cc4[nH]c(CN5CCC[C@@H]5C)cc4cn3)cc12` .
## Output 6.33

## Input Consider the compound shown here: `C[C@H]1CCCN1Cc1cc2cnc(NC(=O)c3ncc(-c4cn[nH]c4)cc3F)cc2[nH]1` What is its recorded pIC50?
## Output 5.96

## Input I have this compound here, `C[C@H]1CCCN1Cc1cc2cnc(NC(=O)c3ccc4c(c3)c(N)nn4C)cc2[nH]1` , and I need its recorded pIC50.
## Output 6.68

----------
# assayed-system: ENL YEATS domain (6×HIS ENL YEATS Domain) binding to H3K9cr peptide (Homo sapiens, UniProt Q03111)
# Construct: aa1-150; EpiCypher, 15-0069; purchased EpiCypher 15-0069
# Sequence (Q03111 1-150): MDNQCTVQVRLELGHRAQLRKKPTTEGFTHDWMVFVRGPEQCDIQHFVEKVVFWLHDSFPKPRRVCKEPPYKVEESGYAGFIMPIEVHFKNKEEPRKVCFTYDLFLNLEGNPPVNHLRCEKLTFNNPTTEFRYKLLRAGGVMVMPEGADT
# test-description: TR-FRET ENL Screening Assay, FRET Assay Protocol 1
# recorded-conditions: H3K9cr peptide (aa1-20)
Below, each entry is listed alongside its reported IC50.
Please give a number only; it is taken to be in nM.

Guide cases for IC50, answers given:
compound	IC50 [nM]
Cc1cnnc(-c2ccc(C(=O)Nc3cc4[nH]c(CN5CCC[C@@H]5C)cc4cn3)c(F)c2)c1	669
Cn1ncc2ccc(C(=O)Nc3cc4[nH]c(CN5CC6(CCOCC6)C5)cc4cn3)cc21	210
CC(c1ccc(C(=O)Nc2cc3[nH]c(CN4CCC[C@@H]4C)cc3cn2)cc1)c1ccccn1 (some centres unmarked)	1780

## Input I would be grateful if you could share the reported IC50 for `Cc1n[nH]c2ccc(C(=O)Nc3cnc4cc(CN5CCC[C@@H]5C)[nH]c4c3)c(F)c12` .
## Output 170

## Input Data request, read-out IC50, for `Cc1ccc(-c2ccc(C(=O)Nc3cc4[nH]c(CN5CCC[C@@H]5C)cc4cn3)c(F)c2)nn1`
## Output 657

## Input Which IC50 is listed for `Cc1n[nH]c2ccc(C(=O)Nc3cc4[nH]c(CN5CCC[C@@H]5C)c(F)c4cn3)cc12` ?
## Output 94

## Input Any idea what IC50 was measured for `Cc1c[nH]c2cc(C(=O)Nc3cc4[nH]c(CN5CCC[C@@H]5C)cc4cn3)ccc12` ?
## Output 622

## Input Would you mind telling me what IC50 value was observed for `COCCn1cc(-c2ccc(C(=O)Nc3cc4[nH]c(CN5CCC[C@@H]5C)cc4cn3)c(F)c2)cn1` ?
## Output 364
